Target: Human cytomegalovirus DNA polymerase (Human cytomegalovirus)
Construct: made in house; host or cells: SF21 insect cells (baculovirus vector)
Sequence (P08546 whole entry): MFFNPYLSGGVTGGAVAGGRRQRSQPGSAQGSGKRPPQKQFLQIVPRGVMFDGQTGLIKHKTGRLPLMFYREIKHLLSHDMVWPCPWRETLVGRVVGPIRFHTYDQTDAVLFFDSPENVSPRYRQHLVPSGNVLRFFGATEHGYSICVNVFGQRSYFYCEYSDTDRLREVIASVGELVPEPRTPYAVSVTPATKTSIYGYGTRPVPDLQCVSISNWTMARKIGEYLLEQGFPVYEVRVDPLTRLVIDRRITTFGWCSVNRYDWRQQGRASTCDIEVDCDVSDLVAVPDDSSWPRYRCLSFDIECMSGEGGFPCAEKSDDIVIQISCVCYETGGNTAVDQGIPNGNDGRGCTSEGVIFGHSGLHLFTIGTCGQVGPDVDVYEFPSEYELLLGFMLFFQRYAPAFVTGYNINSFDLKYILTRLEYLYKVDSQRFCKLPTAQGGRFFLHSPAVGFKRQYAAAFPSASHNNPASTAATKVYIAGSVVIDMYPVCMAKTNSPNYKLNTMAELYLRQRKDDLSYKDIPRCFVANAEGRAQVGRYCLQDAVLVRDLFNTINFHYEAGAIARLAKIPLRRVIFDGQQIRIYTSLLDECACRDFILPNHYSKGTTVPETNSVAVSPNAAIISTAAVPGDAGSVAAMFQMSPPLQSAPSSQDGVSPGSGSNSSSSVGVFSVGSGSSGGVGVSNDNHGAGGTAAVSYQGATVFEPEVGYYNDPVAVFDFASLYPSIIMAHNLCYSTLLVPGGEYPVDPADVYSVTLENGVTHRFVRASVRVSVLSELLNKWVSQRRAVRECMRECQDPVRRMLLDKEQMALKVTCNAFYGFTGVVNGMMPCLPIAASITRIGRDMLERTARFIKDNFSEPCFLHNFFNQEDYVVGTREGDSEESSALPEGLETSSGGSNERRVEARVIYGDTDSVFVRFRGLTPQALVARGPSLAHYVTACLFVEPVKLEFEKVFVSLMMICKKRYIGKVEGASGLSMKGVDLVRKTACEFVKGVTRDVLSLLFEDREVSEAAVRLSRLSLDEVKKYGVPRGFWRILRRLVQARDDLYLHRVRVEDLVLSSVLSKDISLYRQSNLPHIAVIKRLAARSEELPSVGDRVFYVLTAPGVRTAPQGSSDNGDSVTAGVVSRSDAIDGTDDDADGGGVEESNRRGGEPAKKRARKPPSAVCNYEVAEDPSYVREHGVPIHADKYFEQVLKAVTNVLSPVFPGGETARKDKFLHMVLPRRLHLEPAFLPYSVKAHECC
Experiment: CMV polymerase assay (AlphaLISA)
Type: biochemical
Conditions: HCMV polymerase 0.2 nM; 30 min pre-incubation; 60 min at 37° C.; read-out: CMV (IC50)
Consider the following compounds and their measured IC50 readings.

# query-smiles, IC50
measured = [
    ("CCOc1nc(-c2cnn(C(F)F)c2)c(O[C@H]2CCN3C(=O)OC[C@@H]3C2)cc1C(=O)NCc1ccc(Cl)cc1", "0.0426 µM"),
    ("COc1nc(-c2cccs2)c(O[C@H]2CCN3C(=O)OC[C@@H]3C2)cc1C(=O)NCc1ccc(Cl)cc1", "0.00927 µM"),
    ("COc1nc(N2CC3(C(C)(C)O)CC2C3)c(O[C@H]2CCN3C(=O)OC[C@@H]3C2)cc1C(=O)NCc1ccc(Cl)cc1", "0.0539 µM"),
    ("COc1nc(Br)c(O[C@H]2CCN3C(=O)OC[C@@H]3C2)cc1C(=O)NCc1ccc(Cl)cc1", "0.0559 µM"),
    ("COc1nc(-c2cnn(C(F)F)c2)c(O[C@H]2CCN3C(=O)OC[C@@H]3C2)cc1C(=O)NCc1ccc(C#N)cc1", "0.00208 µM"),
    ("COc1nc(-c2cnn(C(F)F)c2)c(O[C@H]2CCN3C(=O)OC[C@@H]3C2)cc1C(=O)NCc1ccc(Cl)cc1", "0.00752 µM"),
    ("COCCOc1nc(-c2cnn(C(F)F)c2)c(O[C@H]2CCN3C(=O)OC[C@@H]3C2)cc1C(=O)NCc1ccc(Cl)cc1", "0.0156 µM"),
]

All values here come from patent US20240083910A1.
